TARGET DESC: murine SR-BI (Mus musculus, UniProt Q61009)
Construct: expressed in transfected cells; host or cells: ldlA-7 (LDL receptor deficient Chinese hamster ovary cells)
Sequence (Q61009 1-509): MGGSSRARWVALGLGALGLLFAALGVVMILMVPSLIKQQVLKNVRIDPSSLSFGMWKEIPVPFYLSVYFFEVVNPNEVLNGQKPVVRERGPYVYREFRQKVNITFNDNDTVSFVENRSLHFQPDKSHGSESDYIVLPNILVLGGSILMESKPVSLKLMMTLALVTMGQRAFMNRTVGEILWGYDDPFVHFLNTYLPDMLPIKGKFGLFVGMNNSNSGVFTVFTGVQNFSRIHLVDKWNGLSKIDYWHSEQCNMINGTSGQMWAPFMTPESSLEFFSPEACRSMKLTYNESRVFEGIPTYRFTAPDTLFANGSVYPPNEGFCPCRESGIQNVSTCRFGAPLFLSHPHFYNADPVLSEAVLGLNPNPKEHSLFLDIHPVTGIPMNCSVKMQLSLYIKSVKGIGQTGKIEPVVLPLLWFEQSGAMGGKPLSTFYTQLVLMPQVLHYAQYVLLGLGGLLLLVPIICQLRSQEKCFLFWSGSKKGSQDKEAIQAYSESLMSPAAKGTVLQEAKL
ASSAY NOTES: Uptake of DiI from DiI-HDL by ldlA[mSR-BI] cells (high throughput screen and concentration dependence)
Type: cell-based
TEST CONDITIONS: Test 1
Recorded ENDOHDL Test 1 values for a group of molecules are listed next.
Answer with a bare number; do not write a unit.

# MOLECULE, EXPERIMENTAL VALUE
data = [
    ("O=C(/C=C/c1ccccc1)NC(NC(=S)Nc1cccc([N+](=O)[O-])c1)C(Cl)(Cl)Cl (stereo not shown) [MIT 9952-100]", 0.5),
    ("Nc1ccc(C(=O)Nc2ccc(-c3nc4ccc(NC(=O)c5ccc(N)cc5)c(Cl)c4[nH]3)cc2Cl)cc1 [MIT 9952-208]", 0.57),
]

q: Give a short answer stating reported ENDOHDL Test 1 for O=C(Nc1ccc(-c2nc3cc(NC(=O)c4ccccc4[N+](=O)[O-])ccc3o2)cc1)c1ccccc1[N+](=O)[O-] [MIT 9952-234] .
a: 0.58

q: In one line, give reported ENDOHDL Test 1 of the entry O=C(/C=C/C=C(Cl)Cl)c1ccc2c(c1)OCO2 [MIT 9952-65] .
a: 1.29

q: Output ENDOHDL Test 1 of O=C(NNC(=O)c1cccc2ccccc12)c1ccc(NC(=O)c2cccc3ccccc23)cc1 [MIT 9952-217]
a: 0.57

q: Query ENDOHDL Test 1 for COc1cc2ccccc2cc1C(=O)Nc1cccc(C)c1 [MIT 9952-237]
a: 0.53

q: Item O=C(Cl)c1ccc2c(c1)C(=O)N(c1ccc(-c3ccnc(-c4ccc(N5C(=O)c6ccc(C(=O)Cl)cc6C5=O)cc4)n3)cc1)C2=O [MIT 9952-42] : provide ENDOHDL Test 1
a: 1.27

###

TARGET DESC: murine SR-BI (Mus musculus, UniProt Q61009)
Construct: expressed in transfected cells; host or cells: ldlA-7 (LDL receptor deficient Chinese hamster ovary cells)
ASSAY NOTES: Uptake of DiI from DiI-HDL by ldlA[mSR-BI] cells (high throughput screen and concentration dependence)
Format: cell-based
TEST CONDITIONS: Test 2
Tag: 1 if measured ENDOHDL Test 2 is not below 0.6, 0 if it is.

# MOLECULE, DISCRETE LABEL
records = [
    ("Nc1cc2cccnc2c2ncccc12 [MIT 9952-230]", 0),
    ("COC(=O)Nc1cc([N+](=O)[O-])cc([N+](=O)[O-])c1Br [MIT 9952-79]", 1),
    ("CCOC(=O)c1c(NC(=O)c2ccccc2C)sc2c1CCCC2 [MIT 9952-223]", 0),
    ("CCOC(=O)c1c(NC(=O)c2ccccc2)sc(NC(=O)c2ccccc2)c1C(=O)OCC [MIT 9952-215]", 0),
]

q: Could you verify whether the entry O=C(Nc1ccc(C2Nc3ccc(SC(=O)c4ccc(Cl)cc4)c(Cl)c3S2)cc1)c1ccc(Cl)cc1 (centres unmarked) [MIT 9952-35] shows ENDOHDL Test 2 of no less than 0.6?
a: 0

###

Item-by-item account of (B) Binding Parameters Bmax
TARGET DESC: murine SR-BI (Mus musculus, UniProt Q61009)
Construct: expressed in transfected cells; host or cells: ldlA-7 (LDL receptor deficient Chinese hamster ovary cells)
Sequence (Q61009 1-509): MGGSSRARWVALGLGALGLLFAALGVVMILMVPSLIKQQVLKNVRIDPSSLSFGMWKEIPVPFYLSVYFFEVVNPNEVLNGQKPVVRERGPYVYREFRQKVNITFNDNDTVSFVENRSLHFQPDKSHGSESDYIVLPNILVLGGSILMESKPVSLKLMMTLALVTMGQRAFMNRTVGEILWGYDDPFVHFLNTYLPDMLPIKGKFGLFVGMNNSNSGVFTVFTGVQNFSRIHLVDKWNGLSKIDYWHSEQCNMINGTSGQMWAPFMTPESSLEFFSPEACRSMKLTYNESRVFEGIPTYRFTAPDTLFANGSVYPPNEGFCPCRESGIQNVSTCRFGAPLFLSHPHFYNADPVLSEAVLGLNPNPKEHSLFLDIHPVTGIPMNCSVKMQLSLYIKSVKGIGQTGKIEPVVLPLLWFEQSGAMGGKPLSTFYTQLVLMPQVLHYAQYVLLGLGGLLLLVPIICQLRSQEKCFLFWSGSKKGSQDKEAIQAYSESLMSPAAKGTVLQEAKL
ASSAY NOTES: 125I-HDL binding to ldlA[mSR-BI] cells
TEST CONDITIONS: 125I-HDL binding sites in presence of BLT at its ICCE95; no BLT control 100.0 ± 18.4
Write the number in % without appending the unit.

# MOLECULE, TARGET DESC, EXPERIMENTAL VALUE
records = [
    ("COc1ccccc1NC(=O)Nc1ccc2ccccc2c1", "murine SR-BI (Mus musculus, UniProt Q61009)", 79.9),
    ("CCCCCCC1CCC/C1=N\\NC(N)=S (centres unmarked)", "murine SR-BI (Mus musculus, UniProt Q61009)", 95.8),
]

q: Recall the reported (B) Binding Parameters Bmax of C/C(=N\NC(=O)c1ccccc1I)c1ccc(N)cc1 on murine SR-BI (Mus musculus, UniProt Q61009) and write it down.
a: 92.1

q: For murine SR-BI (Mus musculus, UniProt Q61009), give the measured (B) Binding Parameters Bmax of the entry CCCCOCCC1CCC/C1=N\NC(N)=S (centres unmarked)
a: 93.0

q: Tell me (B) Binding Parameters Bmax of c1ccc(-c2noc(-c3ccccc3)c3cccc2-3)cc1 when tested on murine SR-BI (Mus musculus, UniProt Q61009).
a: 85.8

###

TARGET DESC: murine SR-BI (Mus musculus, UniProt Q61009)
Construct: expressed in transfected cells; host or cells: ldlA-7 (LDL receptor deficient Chinese hamster ovary cells)
ASSAY NOTES: Uptake of DiI from DiI-HDL by ldlA[mSR-BI] cells (high throughput screen and concentration dependence)
Format: cell-based
TEST CONDITIONS: Test 2
ENDOHDL Test 2 of 0.6 or higher: Criterion met. Under 0.6: Criterion not met.

Previously resolved entries follow.
# MOLECULE, DISCRETE LABEL
records = [
    ("O=C(Cl)c1ccccc1NS(=O)(=O)/C=C/c1ccccc1 [MIT 9952-110]", "Criterion met"),
    ("FC(F)(F)c1cccc(N2N=C(/C=C/c3ccccc3)CC2c2ccccc2)c1 (stereo not drawn)", "Criterion not met"),
    ("NS(=O)(=O)c1ccc(N=N/C(=N/Nc2ccc(S(N)(=O)=O)cc2)c2ccccc2)cc1", "Criterion met"),
    ("O=C(O)C(Cc1ccccc1)N1C(=O)CSC1=S (stereo not drawn)", "Criterion met"),
    ("O=C(NC(NC(=S)Nc1ccc2ccccc2c1)C(Cl)(Cl)Cl)c1cccc([N+](=O)[O-])c1 (stereo not drawn)", "Criterion not met"),
    ("Br.CCOC(=O)c1c(CSC(=N)N)n(C)c2cc(Br)c(OC(C)=O)cc12", "Criterion met"),
    ("CC(=O)C1=C(C)NC(=S)NC1c1ccco1 (stereo not drawn)", "Criterion not met"),
]

As a next step, examine the molecule that follows.
q: Is reported ENDOHDL Test 2 greater than or equal to 0.6 here: O=C(/C=C/c1ccccc1)NC(NC(=S)Nc1cccc([N+](=O)[O-])c1)C(Cl)(Cl)Cl (stereo not drawn) [MIT 9952-7]
a: Criterion not met

###

TARGET DESC: murine SR-BI (Mus musculus, UniProt Q61009)
Construct: expressed in transfected cells; host or cells: ldlA-7 (LDL receptor deficient Chinese hamster ovary cells)
ASSAY NOTES: Uptake of DiI from DiI-HDL by ldlA[mSR-BI] cells (high throughput screen and concentration dependence)
Format: cell-based
TEST CONDITIONS: Test 2
Examples of molecules with documented ENDOHDL Test 2 follow.
Response field accepts a number only; no unit should be typed.

Here's what some known entries look like.
# MOLECULE, ENDOHDL Test 2
records = [
    ("O=C(NC(NC(=S)Nc1cccc2ccccc12)C(Cl)(Cl)Cl)c1cccc([N+](=O)[O-])c1 (stereo not shown)", 0.49),
    ("C=CCc1c(C)nc(-c2ccccc2)nc1Nc1ccc([N+](=O)[O-])cc1", 0.53),
    ("O=C(Nc1ccc(Oc2ccc(Cl)c3cccnc23)c(Cl)c1)c1ccc([N+](=O)[O-])cc1", 0.56),
]

q: Give the reported value of ENDOHDL Test 2 for this record: COc1cccc(/C=N/Nc2ccc([N+](=O)[O-])cc2)c1
a: 0.71

q: Find the measured ENDOHDL Test 2 of CCOC(=O)c1c(NC(=O)c2ccc(N)c([N+](=O)[O-])c2)sc2c1CCCC2 and report it.
a: 0.57

q: Return ENDOHDL Test 2 for the following molecule: O=C(NNC(=O)c1cccc2ccccc12)c1ccc(NC(=O)c2cccc3ccccc23)cc1
a: 0.53

q: State its ENDOHDL Test 2: C/C(=N\NC(=O)c1ccccc1I)c1ccc(N)cc1
a: 0.54

q: Determine from records and report ENDOHDL Test 2 for O=C(Nc1ccc(NC(=O)c2cccc([N+](=O)[O-])c2)c(Cl)c1)c1cccc([N+](=O)[O-])c1
a: 0.4

q: State its ENDOHDL Test 2 for this molecule: Cc1cccc(N2C(=O)CC(N3CCOCC3)C2=O)c1 (stereo not shown)
a: 1.2

q: Return ENDOHDL Test 2 for the following molecule: CCCCN1CCC(O)(c2ccccc2)C(C(=O)c2ccccc2)C1 (stereo not shown)
a: 1.32

q: State its ENDOHDL Test 2: O=C(Nc1cccc(C(F)(F)F)c1)c1cccc(C(=O)Nc2cccc(C(F)(F)F)c2)n1
a: 0.58

q: Supply reported ENDOHDL Test 2 belonging to this molecule: O=[N+]([O-])c1ccc(Cl)c(/C=N/c2ccc(S(=O)(=O)c3ccc(/N=C/c4cc([N+](=O)[O-])ccc4Cl)cc3)cc2)c1
a: 1.39

q: Complete the entry with ENDOHDL Test 2 for CCc1c2cccn2cc(C)[n+]1C.[I-]
a: 0.49
